# assayInfo: reversal of MRP1-mediated doxorubicin resistance, pilot screen, H69AR cells, doxorubicin co-treatment (AID 601)
# measurementParameters: H69AR cells + 2 uM doxorubicin, CellTiter-Glo, 72 h; at 10 µM; stronger effect = higher value
The entries below come with measured differential viability (reversal) values attached.
quantityName: differential viability (reversal) (%)

{"compound": "CCOC(=O)CSC1=C(C#N)C(c2ccc3c(c2)OCO3)CC(=O)N1 (stereo not given)", "reportedMeasurement": -52.4}
{"compound": "O=C(CCCCCn1c(=S)[nH]c2cc3c(cc2c1=O)OCO3)N1CCN(Cc2ccccc2)CC1", "reportedMeasurement": 7.46}
{"compound": "CCOc1ccc(NC(=O)COC(=O)Cn2cnnn2)cc1OCC", "reportedMeasurement": -0.92}
{"compound": "CCN(CC)C(=O)CSC1=C(C#N)C(c2ccco2)C(C(=O)OCCOC)=C(C)N1 (stereo not given)", "reportedMeasurement": 6.37}
{"compound": "CC(=O)c1cc(-c2ccccc2)n(CC(=O)N2CCC(N3CCCCC3)CC2)c1C", "reportedMeasurement": -2.33}

----------
# assayInfo: growth suppression of yeast trafficking mutant, preliminary HTS, modulators of trafficking downstream of Golgi apparatus project, 1536-format plate, OD 615 nm (AID 637)
# measurementParameters: yeast transport mutant growth, absorbance 615 nm, 18 h; stronger effect = higher value
Activity calls are given as the source filed them. Cut-off read from the data, not from the text of the source: active = inhibition above about 30%; inactive = the rest.
The entries below come with measured inhibition values attached.

{"molecule": "COc1cc(/C=N/n2c(C)nnc2C)cc(OC)c1OC", "inhibition": "5.74% (inactive)"}
{"molecule": "CCNC(=O)CC1C(=O)N(c2ccccc2)C(=O)N1CCC(C)C (stereo unspecified)", "inhibition": "-0.82% (inactive)"}
{"molecule": "COC(=O)[C@H](CCSC)NC(=O)Nc1cc(C)ccc1C", "inhibition": "5.71% (inactive)"}
{"molecule": "CCOC(=O)N1CCC(n2c(SCC(=O)NCc3ccco3)nc3ccsc3c2=O)CC1", "inhibition": "2.67% (inactive)"}
{"molecule": "Cc1ccc2c(c1)N(CC(=O)Nc1ccc3c(c1)OCCO3)C(=O)CO2", "inhibition": "-4.73% (inactive)"}
{"molecule": "Cc1ccc(SC(C)c2nc(-c3ccccc3)no2)cc1 (stereo unspecified)", "inhibition": "-5.08% (inactive)"}

----------
# assayInfo: reversal of MRP1-mediated doxorubicin resistance, pilot screen, H69AR cells, doxorubicin co-treatment (AID 601)
# measurementParameters: H69AR cells + 2 uM doxorubicin, CellTiter-Glo, 72 h; measured here: viability with 2 uM doxorubicin; at 10 µM; stronger effect = lower value
I'd appreciate it if you marked entries MET when viability is lower than 90% and NOT MET when it is not.

{"compound": "O=C(Nc1cccc(F)c1)N1CC=C(n2c(=O)[nH]c3ccccc32)CC1", "labelClass": "MET"}
{"compound": "COC(=O)CNC(=O)COC(=O)c1cc(Cl)cc(Cl)c1N", "labelClass": "NOT MET"}
{"compound": "NS(=O)(=O)c1cc2c(cc1C(F)(F)F)NCNS2(=O)=O", "labelClass": "NOT MET"}
{"compound": "COc1ccccc1N1CCN(S(=O)(=O)CC23CCC(CC2=O)C3(C)C)CC1 (stereo not given)", "labelClass": "MET"}
{"compound": "COc1ccc(CCNC(=O)c2cc(C(C)C)on2)cc1OC", "labelClass": "MET"}
{"compound": "Cc1cccc(Nc2ncc3c(n2)CC(c2ccco2)CC3=O)c1 (stereo not given)", "labelClass": "MET"}
{"compound": "Cc1ccc(Cn2c(C)nc3c(c2=O)c2nc4ccccc4nc2n3Cc2ccco2)cc1", "labelClass": "MET"}
{"compound": "CCOC(=O)N1CCC(NC(=O)Cn2cc3c(n2)CCC(C)C3)CC1 (stereo not given)", "labelClass": "NOT MET"}
{"compound": "CCOCC(=O)Nc1c(C(=O)Nc2ccc(OC)cc2OC)oc2ccccc12", "labelClass": "MET"}
{"compound": "CC(=O)c1c(C)[nH]c(C(=O)Nc2c(C)n(C)n(-c3ccccc3)c2=O)c1C", "labelClass": "MET"}
{"compound": "CCn1nnnc1SCC(=O)Nc1nc(-c2cccs2)cs1", "labelClass": "MET"}
{"compound": "Nn1c(SCC(=O)Nc2ccc(S(=O)(=O)N3CCCC3)cc2)nnc1C(F)(F)F", "labelClass": "NOT MET"}
{"compound": "CC(=O)[C@@]1(O)CC[C@H]2[C@@H]3C[C@H](C)C4=CC(=O)C=C[C@]4(C)[C@@]3(F)[C@@H](O)C[C@@]21C", "labelClass": "NOT MET"}
{"compound": "C=CCSc1nnc(NC(=O)c2ccc(S(=O)(=O)NCC3CCCO3)cc2)s1 (stereo not given)", "labelClass": "NOT MET"}
{"compound": "COc1ccc(N2CCN(CCNS(=O)(=O)c3cccc4nsnc34)CC2)cc1", "labelClass": "NOT MET"}
{"compound": "CCS(=O)(=O)N1CCCC(C(=O)NCCc2ccc(OC)c(OC)c2)C1 (stereo not given)", "labelClass": "NOT MET"}
{"compound": "CCOC(=O)CS(=O)(=O)c1nc(-c2ccccc2)cc(C(F)(F)F)n1", "labelClass": "MET"}
{"compound": "Cc1ccc(-n2c(C)cc3c2CCCC3=O)cc1", "labelClass": "NOT MET"}
{"compound": "O=C(O)c1ccc(S(=O)(=O)Cc2ccccc2)cc1", "labelClass": "NOT MET"}
{"compound": "O=C(NC1CCCCC1NC(=O)c1ccco1)c1ccco1 (stereo not given)", "labelClass": "NOT MET"}
{"compound": "Cc1ccc2c(c1C)NC(=O)C2(O)CC(=O)c1ccc2c(c1)OCO2 (stereo not given)", "labelClass": "NOT MET"}
{"compound": "CC(=O)OCC[N+](C)(C)C", "labelClass": "NOT MET"}
{"compound": "COCCNC(=O)CN1CCC(NC(=O)Nc2ccc(C(F)(F)F)cc2)CC1", "labelClass": "NOT MET"}
{"compound": "c1ccc(CSc2nnc(-c3cccs3)n2Cc2ccco2)cc1", "labelClass": "MET"}
{"compound": "O=C(NCc1ccco1)c1cccc(S(=O)(=O)N2CCCCC2)c1", "labelClass": "NOT MET"}
{"compound": "COc1ccc(S(=O)(=O)Nc2cc(C)on2)cc1OC", "labelClass": "NOT MET"}
{"compound": "O=C(CSc1nnc(-c2ccncc2)o1)Oc1ccccc1", "labelClass": "MET"}
{"compound": "CCOc1ccc(CCNc2nc3c(c(=O)n(C)c(=O)n3C)n2CC)cc1OCC", "labelClass": "MET"}
{"compound": "COC(=O)c1cccc(NC(=O)CSc2nnc(COc3ccccc3)n2C)c1", "labelClass": "MET"}
{"compound": "COc1ccc(CC(=O)NCc2cccs2)cc1", "labelClass": "MET"}
{"compound": "CCOC(=O)C1=C(C)NC(C)=C(C(=O)OC)C1c1cccc([N+](=O)[O-])c1 (stereo not given)", "labelClass": "NOT MET"}
{"compound": "COc1ccccc1NS(=O)(=O)c1ccc(OC)c(OC)c1", "labelClass": "NOT MET"}
{"compound": "CCOC(=O)C1CN(S(=O)(=O)c2ccc(C)cc2)CCN1S(=O)(=O)c1ccc(C)cc1 (stereo not given)", "labelClass": "NOT MET"}
{"compound": "CCN(CC)c1ccc2c(C)c(-c3ccc(N)cc3)c(=O)oc2c1", "labelClass": "MET"}
{"compound": "Clc1cccc(-c2nn3c(Cn4cnc5ccccc54)nnc3s2)c1", "labelClass": "NOT MET"}
{"compound": "CN(Cc1ccccc1)C(=O)c1cc(-c2ccc(Br)cc2)on1", "labelClass": "NOT MET"}

----------
# assayInfo: growth inhibitors of H69AR lung tumor, primary screen, human, duplicate replicates (AID 580);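 further: 100% = mean luminescence of untreated wells and 0% = no signal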
# measurementParameters: H69AR lung tumor cells viability, ATP luminescence, 72 h; at 10 µM
Calls of active or inactive are those of the source.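 Rule for the calls: active = viability at or under a set limit in both replicates, limit being median viability minus 3 SD (cut at about 48% in these data, passing the limit was not always enough); inconclusive = at or under the limit in just one replicate; inactive = at or above the limit in both replicates.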
Possible outcomes: TRUE for active, FALSE for inactive

{"compound": "O=C1CSC(c2cn(-c3ccccc3)nc2-c2cccs2)N1CC1CCCO1 (stereo not given)", "labelClass": "FALSE"}
{"compound": "O=C(Nc1ccon1)c1cc(-c2ccccc2)nc2ccccc12", "labelClass": "FALSE"}
{"compound": "Cc1cccc(-n2ncc(C#N)c2N)c1", "labelClass": "FALSE"}
{"compound": "COc1ccccc1N1CCN(C/C(O)=C(\\C#N)c2nc(-c3ccccc3)cs2)CC1", "labelClass": "FALSE"}
{"compound": "CCOc1ccc(/C=N/n2cnnc2)cc1", "labelClass": "FALSE"}
{"compound": "CS(=O)(=O)NCC(c1cccnc1)N1CCN(c2ccc(F)cc2)CC1 (stereo not given)", "labelClass": "FALSE"}
{"compound": "CCn1c(SCC(=O)NC)nnc1C(C)C", "labelClass": "FALSE"}
{"compound": "O=C(CSc1nnc(-c2cnccn2)n1Cc1ccco1)c1ccc(Cl)cc1", "labelClass": "FALSE"}
{"compound": "Cn1c(=O)c2c(nc(CN3CCN(c4ccccc4F)CC3)n2CCN2CCOCC2)n(C)c1=O", "labelClass": "FALSE"}
{"compound": "CCOC(=O)c1cnc2c(OC)cccc2c1N1CCN(c2ccc(OC)cc2)CC1", "labelClass": "FALSE"}
{"compound": "O=C(NCc1ccc(F)cc1)c1cc(-c2ccco2)on1", "labelClass": "FALSE"}
{"compound": "O=C(CCn1c(=O)c2ccccc2n(CC(=O)NCCC2=CCCCC2)c1=O)NCc1ccco1", "labelClass": "FALSE"}
{"compound": "COCCn1nnnc1C(c1cc2cc(C)cc(C)c2[nH]c1=O)N1CCN(c2ccccc2F)CC1 (stereo not given)", "labelClass": "FALSE"}
{"compound": "CC1(C)C(c2cccs2)=[N+]([O-])C2(CCCCC/C2=N\\O)N1O (stereo not given)", "labelClass": "FALSE"}
{"compound": "COc1ccc2c3c(c(=O)oc2c1OCC(N)=O)CCCC3", "labelClass": "FALSE"}
{"compound": "CC(=O)SCCC(=O)Nc1ccccc1", "labelClass": "FALSE"}
{"compound": "CC(=O)OCC(=O)[C@H]1CC[C@H]2[C@@H]3CCC4=CC(=O)CC[C@]4(C)[C@H]3CC[C@]12C", "labelClass": "FALSE"}
{"compound": "COc1ccc(OC)c(S(=O)(=O)N2CCC(C(=O)NCc3ccccc3OC)CC2)c1", "labelClass": "FALSE"}
{"compound": "CCCCn1c(CN2CCN(CCO)CC2)nc2ccccc21", "labelClass": "FALSE"}
{"compound": "CCOc1cc(C(=O)Nc2ncccn2)cc(OCC)c1OCC", "labelClass": "FALSE"}
{"compound": "COc1ccccc1NC(=O)CSc1nnc(-c2ccncc2)o1", "labelClass": "FALSE"}
{"compound": "CC(C)C(c1nnnn1C1CCCC1)N1CCCc2ccccc21 (stereo not given)", "labelClass": "FALSE"}
{"compound": "Cc1nc2ccc(F)cc2cc1C(=O)NCC1CCCO1 (stereo not given)", "labelClass": "FALSE"}
{"compound": "CC(=O)c1c(C)[nH]c(C(=O)NC2=NCCS2)c1C", "labelClass": "FALSE"}
{"compound": "Cc1ccc(Cn2nnc3c(=O)[nH]c(C4CCN(S(=O)(=O)c5ccc(F)cc5)CC4)nc32)cc1", "labelClass": "FALSE"}
{"compound": "COC(=O)[C@H](C)NC(=O)Nc1cccc(C(F)(F)F)c1", "labelClass": "FALSE"}
{"compound": "CCCN1Cc2cccc(C(=O)NC3CCCC3)c2C1=O", "labelClass": "FALSE"}
{"compound": "Clc1ccc(C2=Nn3c(nnc3-c3n[nH]c4c3CCC4)SC2)cc1Cl", "labelClass": "TRUE"}
{"compound": "COc1ccccc1-c1c(C)nn2c(C)c(C(C)=O)cnc12", "labelClass": "FALSE"}
{"compound": "O=C(CCCNS(=O)(=O)c1ccccc1)NCc1ccco1", "labelClass": "FALSE"}
{"compound": "CCOC(=O)c1cc2ccc(OC)c(OC)c2c(=O)s1", "labelClass": "FALSE"}
{"compound": "O=C(COC(=O)c1cc(S(=O)(=O)N2CCOCC2)cs1)c1ccccc1", "labelClass": "FALSE"}
{"compound": "O=C(NCC1CCCO1)c1cccc(N2CCCC2=O)c1 (stereo not given)", "labelClass": "FALSE"}
{"compound": "CCOC(=O)c1ccccc1NC1c2ccccc2C(=O)N1C1CCN(C(=O)OCC)CC1 (stereo not given)", "labelClass": "FALSE"}
{"compound": "COc1cccc(-c2nc(-c3ccc(NC(=O)Cc4ccccc4OC)cc3)no2)c1", "labelClass": "FALSE"}
{"compound": "CCCCC[C@H](O)/C=C/[C@H]1C=CC(=O)[C@@H]1C/C=C\\CCCC(=O)O", "labelClass": "FALSE"}
{"compound": "CCCNC(=O)c1cc(-c2ccco2)on1", "labelClass": "FALSE"}
{"compound": "O=C(CSc1ccccc1C(=O)NCCCN1CCCC1=O)NCc1ccco1", "labelClass": "FALSE"}
{"compound": "O=C(C1CCCO1)N1CCN(C(c2ccccc2)c2ccccc2)CC1 (stereo not given)", "labelClass": "FALSE"}
{"compound": "COc1cccc(C(=O)Nc2cc(NC(=O)c3ccco3)ccc2OC)c1", "labelClass": "FALSE"}
{"compound": "C1COC(NC(C2CC2)C2CC2)=N1", "labelClass": "FALSE"}
{"compound": "O=S(=O)(NC1CCCCC1NS(=O)(=O)c1ccc(F)cc1)c1ccc(F)cc1 (stereo not given)", "labelClass": "FALSE"}
{"compound": "COc1ccccc1N(C)S(=O)(=O)c1ccc(C(=O)NC2=NCCS2)cc1", "labelClass": "FALSE"}
{"compound": "CCOc1nc(-c2ccccc2)ccc1-c1noc(-c2ccc(OC)c(OC)c2)n1", "labelClass": "FALSE"}
{"compound": "N#Cc1ccc(CSc2nnc(-c3ccccn3)n2-c2ccccc2)cc1", "labelClass": "FALSE"}
